assayed.target: T1, human IL1RAP (hu-IL1RAP) on human cells (human, UniProt Q9NPH3 21-570)
T1 sequence: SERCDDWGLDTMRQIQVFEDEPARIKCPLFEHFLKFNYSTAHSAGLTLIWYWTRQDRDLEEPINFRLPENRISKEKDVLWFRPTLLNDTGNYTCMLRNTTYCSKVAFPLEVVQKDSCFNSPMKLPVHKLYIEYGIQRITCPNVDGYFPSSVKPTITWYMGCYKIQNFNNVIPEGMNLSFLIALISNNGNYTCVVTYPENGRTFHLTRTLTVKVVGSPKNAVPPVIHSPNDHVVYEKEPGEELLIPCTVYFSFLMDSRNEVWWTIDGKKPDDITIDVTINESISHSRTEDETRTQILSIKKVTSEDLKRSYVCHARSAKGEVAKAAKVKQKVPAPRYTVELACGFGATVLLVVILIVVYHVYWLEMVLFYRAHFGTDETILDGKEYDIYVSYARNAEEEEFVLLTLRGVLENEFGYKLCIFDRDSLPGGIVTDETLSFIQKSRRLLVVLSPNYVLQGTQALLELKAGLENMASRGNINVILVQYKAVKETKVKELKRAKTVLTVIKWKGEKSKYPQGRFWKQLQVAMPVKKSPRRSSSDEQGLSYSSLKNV
experimental.details: cell-based or functional assay
value.type: HEK-Blue, IL-36α, % inhibition at 100 nM (IgG)
Give the number first and the unit second.

Past entries and their recorded results:
binder: K13 IgG (VL-A51Y/W92I) (antibody, V domains shown) VH: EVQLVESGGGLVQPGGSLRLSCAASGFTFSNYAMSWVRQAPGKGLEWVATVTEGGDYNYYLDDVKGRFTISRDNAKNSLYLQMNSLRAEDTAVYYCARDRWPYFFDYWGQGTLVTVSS VL: DIQMTQSPSSLSASVGDRVTITCRASENIYSNLAWYQQKPGKSPKLLVYGYKNLADGVPSRFSGSGSGTDYTLTISSLQPEDFATYYCQHFITTPRTFGGGTKVEIK
recorded.result: 100%

binder: K17 IgG (VL-A51Y/W92K) (antibody, V domains shown) VH: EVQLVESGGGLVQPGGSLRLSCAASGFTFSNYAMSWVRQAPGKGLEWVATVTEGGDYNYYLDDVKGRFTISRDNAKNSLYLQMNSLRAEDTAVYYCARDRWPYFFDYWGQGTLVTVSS VL: DIQMTQSPSSLSASVGDRVTITCRASENIYSNLAWYQQKPGKSPKLLVYGYKNLADGVPSRFSGSGSGTDYTLTISSLQPEDFATYYCQHFKTTPRTFGGGTKVEIK
recorded.result: 100%

binder: Parent IgG Ab (full-length IgG of h11C5_C59Y/A43S) (antibody, V domains shown) VH: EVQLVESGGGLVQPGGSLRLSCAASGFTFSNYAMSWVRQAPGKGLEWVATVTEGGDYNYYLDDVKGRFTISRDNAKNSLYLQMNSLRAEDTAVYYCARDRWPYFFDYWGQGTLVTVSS VL: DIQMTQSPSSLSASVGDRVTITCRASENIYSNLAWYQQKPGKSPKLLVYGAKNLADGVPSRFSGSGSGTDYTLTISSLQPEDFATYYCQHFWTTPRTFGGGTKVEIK
recorded.result: 89%

binder: K10/H2 IgG (VL-A51Y, VH-R96D) (antibody, V domains shown) VH: EVQLVESGGGLVQPGGSLRLSCAASGFTFSNYAMSWVRQAPGKGLEWVATVTEGGDYNYYLDDVKGRFTISRDNAKNSLYLQMNSLRAEDTAVYYCARDDWPYFFDYWGQGTLVTVSS VL: DIQMTQSPSSLSASVGDRVTITCRASENIYSNLAWYQQKPGKSPKLLVYGYKNLADGVPSRFSGSGSGTDYTLTISSLQPEDFATYYCQHFWTTPRTFGGGTKVEIK
recorded.result: 100%

binder: K10 IgG (VL-A51Y) (antibody, V domains shown) VH: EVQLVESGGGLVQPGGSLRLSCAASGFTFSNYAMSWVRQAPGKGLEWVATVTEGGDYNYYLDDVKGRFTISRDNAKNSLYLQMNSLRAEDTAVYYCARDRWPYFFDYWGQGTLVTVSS VL: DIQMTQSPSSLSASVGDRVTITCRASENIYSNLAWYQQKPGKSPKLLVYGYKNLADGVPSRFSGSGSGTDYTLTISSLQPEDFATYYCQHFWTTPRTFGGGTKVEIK
recorded.result: 100%

binder: h11C5 variant K13/H2 IgG (YID) (antibody, V domains shown, Human IgG1 N297G; also called 11C5-YID) VH: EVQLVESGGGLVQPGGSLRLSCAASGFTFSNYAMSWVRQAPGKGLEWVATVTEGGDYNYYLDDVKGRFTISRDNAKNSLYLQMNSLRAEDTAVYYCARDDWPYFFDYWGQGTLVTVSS VL: DIQMTQSPSSLSASVGDRVTITCRASENIYSNLAWYQQKPGKSPKLLVYGYKNLADGVPSRFSGSGSGTDYTLTISSLQPEDFATYYCQHFITTPRTFGGGTKVEIKR
recorded.result: 100%

binder: h11C5 variant K17/H3 IgG (YKS) (antibody, V domains shown, Human IgG1 N297G; also called 11C5-YKS) VH: EVQLVESGGGLVQPGGSLRLSCAASGFTFSNYAMSWVRQAPGKGLEWVATSTEGGDYNYYLDDVKGRFTISRDNAKNSLYLQMNSLRAEDTAVYYCARDRWPYFFDYWGQGTLVTVSS VL: DIQMTQSPSSLSASVGDRVTITCRASENIYSNLAWYQQKPGKSPKLLVYGYKNLADGVPSRFSGSGSGTDYTLTISSLQPEDFATYYCQHFKTTPRTFGGGTKVEIKR
recorded.result: 96%

Which value of HEK-Blue, IL-36α, % inhibition at 100 nM (IgG) has been reported for K10/H3 IgG (VL-A51Y, VH-V51S) (antibody, V domains shown) VH: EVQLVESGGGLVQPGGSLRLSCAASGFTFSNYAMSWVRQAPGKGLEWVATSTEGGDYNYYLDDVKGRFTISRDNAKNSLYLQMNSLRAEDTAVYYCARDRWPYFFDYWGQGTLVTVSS VL: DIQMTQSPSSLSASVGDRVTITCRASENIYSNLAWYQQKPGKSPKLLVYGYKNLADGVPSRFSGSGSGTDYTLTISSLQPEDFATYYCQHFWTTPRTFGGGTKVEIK in the records?
100%

Numbers sourced from patent US20260015426A1.
